B1: STEAP1 (parent)
chain: LWKMKPRRNLEEDDYLHKDTGETS

Variants of: B1
method-notes: protein stability index of a GFP-peptide fusion (GPS, HEK-293T) (PSI 1-6); higher = more stable;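 note: lentivirally expressed fusions sorted by FACS into six bins by GFP to DsRed ratio, PSI derived from sequencing read proportions per bin multiplied by bin number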
test-parameters: c terminus: a fixed tail appended
measurement-name: protein stability index

{"mutation-string": "K5T", "measurement-name": "protein stability index", "reading": 4.56}
{"mutation-string": "T23E", "measurement-name": "protein stability index", "reading": 5.03}
{"mutation-string": "E22I", "measurement-name": "protein stability index", "reading": 3.73}
{"mutation-string": "K3T", "measurement-name": "protein stability index", "reading": 4.36}
{"mutation-string": "R8M", "measurement-name": "protein stability index", "reading": 4.6}
{"mutation-string": "D13K", "measurement-name": "protein stability index", "reading": 4.43}
{"mutation-string": "K3F", "measurement-name": "protein stability index", "reading": 3.31}
{"mutation-string": "P6G", "measurement-name": "protein stability index", "reading": 4.42}
{"mutation-string": "D19I", "measurement-name": "protein stability index", "reading": 3.46}
{"mutation-string": "K18P", "measurement-name": "protein stability index", "reading": 4.47}
{"mutation-string": "P6A", "measurement-name": "protein stability index", "reading": 3.94}
{"mutation-string": "N9S", "measurement-name": "protein stability index", "reading": 4.56}
{"mutation-string": "W2H", "measurement-name": "protein stability index", "reading": 4.96}
{"mutation-string": "E12H", "measurement-name": "protein stability index", "reading": 3.75}
{"mutation-string": "K5S", "measurement-name": "protein stability index", "reading": 5.01}
{"mutation-string": "D13I", "measurement-name": "protein stability index", "reading": 3.84}
{"mutation-string": "G21L", "measurement-name": "protein stability index", "reading": 3.91}
{"mutation-string": "Y15S", "measurement-name": "protein stability index", "reading": 5.16}
{"mutation-string": "K5P", "measurement-name": "protein stability index", "reading": 4.91}
{"mutation-string": "K18M", "measurement-name": "protein stability index", "reading": 4.29}
{"mutation-string": "P6D", "measurement-name": "protein stability index", "reading": 4.41}
{"mutation-string": "L10Y", "measurement-name": "protein stability index", "reading": 4.1}
{"mutation-string": "N9A", "measurement-name": "protein stability index", "reading": 4.41}
{"mutation-string": "E22S", "measurement-name": "protein stability index", "reading": 4.08}
{"mutation-string": "E11R", "measurement-name": "protein stability index", "reading": 4.04}
{"mutation-string": "E11S", "measurement-name": "protein stability index", "reading": 4.06}
{"mutation-string": "Y15G", "measurement-name": "protein stability index", "reading": 4.83}
{"mutation-string": "R8P", "measurement-name": "protein stability index", "reading": 4.61}
{"mutation-string": "T20M", "measurement-name": "protein stability index", "reading": 3.84}
{"mutation-string": "T20S", "measurement-name": "protein stability index", "reading": 4.19}
{"mutation-string": "D14G", "measurement-name": "protein stability index", "reading": 4.31}
{"mutation-string": "R7H", "measurement-name": "protein stability index", "reading": 4.69}
{"mutation-string": "R8W", "measurement-name": "protein stability index", "reading": 3.82}
{"mutation-string": "K3S", "measurement-name": "protein stability index", "reading": 4.51}
{"mutation-string": "E22L", "measurement-name": "protein stability index", "reading": 4.13}
{"mutation-string": "R7T", "measurement-name": "protein stability index", "reading": 4.85}
{"mutation-string": "T23A", "measurement-name": "protein stability index", "reading": 4.63}
{"mutation-string": "T23H", "measurement-name": "protein stability index", "reading": 4.4}
{"mutation-string": "K3C", "measurement-name": "protein stability index", "reading": 3.49}
{"mutation-string": "M4Q", "measurement-name": "protein stability index", "reading": 4.95}
{"mutation-string": "W2S", "measurement-name": "protein stability index", "reading": 5.48}
{"mutation-string": "G21A", "measurement-name": "protein stability index", "reading": 4.65}
{"mutation-string": "P6T", "measurement-name": "protein stability index", "reading": 4.47}
{"mutation-string": "N9I", "measurement-name": "protein stability index", "reading": 4.15}
{"mutation-string": "T20Y", "measurement-name": "protein stability index", "reading": 3.74}
{"mutation-string": "L16Q", "measurement-name": "protein stability index", "reading": 4.87}
